# target system: human Nav1.1 (Homo sapiens)
# Construct: host or cells: HEK293
# experiment summary: Amplification of Nav1.1-derived voltage-gated sodium current (Nav1.1 current), automated patch clamp (Test 1)
# Assay type: cell-based
# condition parameters: Concentration for evaluation 1 μM; HEK293 cell line stably expressing human Nav1.1

| compound | Nav1.1 current amplification rate (%) |
| --- | --- |
| CC(C1CC1)N(C)c1cnc2cnn(CC(=O)Nc3ccn4ncnc4c3)c2n1 (stereo not drawn) | 15 |
| CN(c1cnc2cnn(CC(=O)Nc3ccc4cnccc4c3)c2n1)C1CC1 | 195 |
| CN(c1ncc2cnn(CC(=O)Nc3ccn4ncnc4c3)c2n1)C1CC(C)(C)C1 | 164 |
| CC1CC=C(c2ccc(=O)n(CC(=O)Nc3ccc4ncnn4c3)n2)CC1 (stereo not drawn) | 127 |
| CC1CC=C(c2ccc(=O)n(CC(=O)Nc3cncc(C4=CCN(C)C4)c3)n2)CC1 (stereo not drawn) | 38 |
| CC1CC=C(c2ccc(=O)n(CC(=O)N3CCc4c3ccc(F)c4-c3ccnnc3)n2)CC1 (stereo not drawn) | 95 |
| CC1CC=C(c2ccc(=O)n(CC(=O)Nc3ccc(-n4ccnc4)nc3)n2)CC1 (stereo not drawn) | 134 |
| CN(C)c1nc2cc(NC(=O)Cn3ncc4ncc(N(C)C5CCCC5)nc43)ccc2o1 | 62 |
| Cc1nc2ccc(NC(=O)Cn3nc(C4=CCC(C)CC4)ccc3=O)cn2n1 (stereo not drawn) | 37 |
| Cc1cc(NC(=O)Cn2ncc3ncc(N(C)C4CCC4)nc32)cc2ncnn12 | 67 |
| CN(c1cnc2cnn(CC(=O)Nc3cnc4ccccc4c3)c2n1)C1CC1 | 78 |
| COCCN(C)Cc1cccc2c1CCN2C(=O)Cn1nc(C2=CCC(C)CC2)ccc1=O (stereo not drawn) | 46 |
| CN(c1cnc2cnn(CC(=O)Nc3ccn4ccnc4c3)c2n1)C1CCCC1 | 77 |
| CC1CC=C(c2ccc(=O)n(CC(=O)Nc3ccn4cnnc4c3)n2)CC1 (stereo not drawn) | 71 |
| CN(c1cnc2cnn(CC(=O)Nc3cnc4ncccc4c3)c2n1)C1CC1 | 95 |
| CC1CC=C(c2ccc(=O)n(CC(=O)N3CCc4c(CNC5CCOCC5)cccc43)n2)CC1 (stereo not drawn) | 41 |
| CCC1CC=C(c2cnc3cnn(CC(=O)Nc4ccc5ncnn5c4)c3n2)CC1 (stereo not drawn) | 26 |
| CC1CC=C(c2ccc(=O)n(CC(=O)Nc3ccn4ncnc4c3)n2)CC1 (stereo not drawn) | 191 |

###

# target system: human Nav1.1 (Homo sapiens, UniProt P35498)
# Construct: host or cells: HEK293
# experiment summary: Amplification of Nav1.1-derived voltage-gated sodium current (Nav1.1 current), automated patch clamp (Test 1)
# Format: cell-based
# condition parameters: Concentration for evaluation 1 μM; HEK293 cell line stably expressing human Nav1.1

| compound | unit string | Nav1.1 current amplification rate (%) |
| --- | --- | --- |
| O=C(Cn1ncc2cnc(-c3ccc(C(F)(F)F)s3)nc21)Nc1ccn2ncnc2c1 | % | 44 |
| CC1CC=C(c2ccc(=O)n(CC(=O)N3CCc4c3ccnc4C3=CCN(C)C3)n2)CC1 (centres unmarked) | % | 15 |
| O=C(Cn1ncc2cnc(N3CCC4(CCC4)C3)nc21)Nc1ccn2ncnc2c1 | % | 25 |
| CCC1(C)CCN(c2ncc3cnn(CC(=O)Nc4ccn5ncnc5c4)c3n2)CC1 | % | 36 |
| CC1(C)CC=C(c2cnc3cnn(CC(=O)Nc4ccc5ncnn5c4)c3n2)CC1 | % | 91 |
| Cc1cn2ccc(NC(=O)Cn3ncc4ncc(N(C)C5CC5)nc43)cc2n1 | % | 27 |
| Cc1cc(NC(=O)Cn2ncc3ncc(N(C)C4CCCC4)nc32)cn2ncnc12 | % | 35 |
| O=C(Cn1nc(-c2cc(Cl)cs2)ccc1=O)Nc1ccn2ccnc2c1 | % | 80 |
| CN(c1ncc2cnn(CC(=O)Nc3ccc4ncnn4c3)c2n1)C1CC(C)(C)C1 | % | 72 |
| CC1CC=C(c2ccc(=O)n(CC(=O)N3CCc4c3ccnc4N3CCOCC3)n2)CC1 (centres unmarked) | % | 134 |
| CC(C)CCOc1ncc2cnn(CC(=O)Nc3ccn4ncnc4c3)c2n1 | % | 10 |
